Source listed as patent US20250059171A1.

This section lists pIC50 readings for UniProt:P0C6X1.
Sequence (P0C6X1 2966-3267): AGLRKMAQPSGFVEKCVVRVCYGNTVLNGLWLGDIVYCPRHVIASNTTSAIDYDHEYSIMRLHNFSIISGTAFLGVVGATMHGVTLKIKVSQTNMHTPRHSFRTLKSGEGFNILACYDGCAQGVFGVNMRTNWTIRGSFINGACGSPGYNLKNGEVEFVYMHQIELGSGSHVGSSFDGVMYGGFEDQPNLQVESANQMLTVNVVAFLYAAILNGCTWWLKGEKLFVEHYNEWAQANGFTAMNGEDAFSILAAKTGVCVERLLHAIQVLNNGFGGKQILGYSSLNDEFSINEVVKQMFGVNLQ
Give only the number. pIC50 is defined as minus log10 of concentration in molar units.

Exercise: Lab request: please report pIC50 under test system UniProt:P0C6X1 for CC1(C)[C@@H]2[C@@H](C(=O)NN(C[C@@H]3CCNC3=O)C(=O)[C@@H](F)Cl)N(C(=O)[C@@H](NC(=O)C3(F)CC3)C3CCC3)C[C@@H]21
Key: 7.22

Exercise: Lab request: please report pIC50 under test system UniProt:P0C6X1 for CCC(CC)[C@H](NC(=O)C(F)(F)F)C(=O)N1C[C@H]2[C@@H]([C@H]1C(=O)NN(C[C@@H]1CCNC1=O)C(=O)[C@H](F)Cl)C2(C)C
Key: 7.52

Exercise: Lab request: please report pIC50 under test system UniProt:P0C6X1 for CC[C@H](C)[C@H](NC(=O)C(C)(F)F)C(=O)N1C[C@H]2[C@@H]([C@H]1C(=O)NN(C[C@@H]1CCNC1=O)C(=O)[C@H](F)Cl)C2(C)C
Key: 7.68

Further cases:
Exercise: Lab request: please report pIC50 under test system UniProt:P0C6X1 for CC[C@H](C)[C@H](NC(=O)C1CC(F)(F)C1)C(=O)N1C[C@H]2[C@@H]([C@H]1C(=O)NN(C[C@@H]1CCNC1=O)C(=O)[C@@H](F)Cl)C2(C)C
Key: 7.30

Exercise: Lab request: please report pIC50 under test system UniProt:P0C6X1 for CC[C@@H](C)[C@H](NC(=O)C1CC(F)(F)C1)C(=O)N1C[C@H]2[C@@H]([C@H]1C(=O)NN(C[C@@H]1CCNC1=O)C(=O)[C@H](F)Cl)C2(C)C
Key: 7.54

---

Measured target: SARS-CoV-2 3CLpro (Severe acute respiratory syndrome coronavirus 2, UniProt P0DTD1)
Procedure summary: biochemical
pIC50 listing for selected compounds.
Give only the number. pIC50 is defined as minus log10 of concentration in molar units.

In the examples that follow, each entry is paired with its recorded pIC50.
Exercise: What measured pIC50 goes with CC1(C)[C@@H]2[C@@H](C(=O)NN(C[C@@H]3CCNC3=O)C(=O)[C@H](F)Cl)N(C(=O)COc3cc(F)cc(F)c3)C[C@@H]21 ?
Key: 6.92

Exercise: What measured pIC50 goes with CC[C@H](C)[C@H](NC(=O)C1(F)CC1)C(=O)N1C[C@H]2[C@@H]([C@H]1C(=O)NN(C[C@H]1CCCNC1=O)C(=O)[C@H](F)Cl)C2(C)C [Example 166b] ?
Key: 7.72

Exercise: What measured pIC50 goes with CCC(=O)N[C@H](C(=O)N1C[C@@H]2CCC[C@@H]2[C@H]1C(=O)NN(C[C@@H]1CCNC1=O)C(=O)[C@H](F)Cl)[C@@H](C)CC ?
Key: 8.10

Exercise: What measured pIC50 goes with CCC(CC)[C@H](NC(=O)C(F)F)C(=O)N1C[C@@H]2CCC[C@@H]2[C@H]1C(=O)NN(C[C@@H]1CCCNC1=O)C(=O)[C@H](F)Cl ?
Key: 8.00

Exercise: What measured pIC50 goes with CCC(CC)[C@H](NC(=O)C(F)(F)F)C(=O)N1C[C@@H]2CCC[C@@H]2[C@H]1C(=O)NN(C[C@@H]1CCNC1=O)C(=O)[C@H](F)Cl ?
Key: 8.15

Exercise: What measured pIC50 goes with CCCC(=O)N[C@H](C(=O)N1C[C@@H]2CCC[C@@H]2[C@H]1C(=O)NN(C[C@@H]1CCNC1=O)C(=O)[C@H](F)Cl)[C@@H](C)CC ?
Key: 8.10

Exercise: What measured pIC50 goes with CCC(CC)[C@H](NC(=O)C1CC1)C(=O)N1C[C@H]2[C@@H]([C@H]1C(=O)NN(C[C@@H]1CCNC1=O)C(=O)[C@H](F)Cl)C2(C)C ?
Key: 7.96

Exercise: What measured pIC50 goes with CC(C)(C)[C@H](NC(=O)C(F)(F)F)C(=O)N1C[C@H]2[C@@H]([C@H]1C(=O)NN(CCC(N)=O)C(=O)[C@H](F)Cl)C2(C)C ?
Key: 7.85

Further cases:
Exercise: What measured pIC50 goes with CC(C)(C)[C@H](Nc1ncncc1F)C(=O)N1C[C@@H]2CCC[C@@H]2[C@H]1C(=O)NN(C[C@@H]1CCNC1=O)C(=O)[C@H](F)Cl ?
Key: 7.96

Exercise: What measured pIC50 goes with CCC(CC)[C@H](NC(=O)C1CC1)C(=O)N1C[C@@H]2CCC[C@@H]2[C@H]1C(=O)NN(C[C@@H]1CCNC1=O)C(=O)[C@H](F)Cl ?
Key: 7.96

Exercise: What measured pIC50 goes with CC[C@H](C)[C@H](NC(=O)C(C)(C)C)C(=O)N1C[C@H]2[C@@H]([C@H]1C(=O)NN(C[C@@H]1CCNC1=O)C(=O)[C@H](F)Cl)C2(C)C ?
Key: 8.00
